Value source: ChEMBL document CHEMBL4823288

microsomal CLint values by entry
Experiment: Microsomal stability in human liver microsomes assessed as intrinsic clearance
Type: ADME, Microsome
Conditions: read-out: CLH
readout_label: microsomal CLint (µL/min/mg)

compound=CC(C)(NC(=O)c1cc(F)cc2cc(-c3ccc(Cl)cc3)oc12)C(=O)O readout_label="microsomal CLint" measured_value=33
compound="CCC(C)(NC(=O)c1cc(F)cc2cc(-c3ccc(Cl)cc3)oc12)C(=O)O (configuration not stated)" readout_label="microsomal CLint" measured_value=32

* * *

Test: Stability in human hepatocytes assessed as intrinsic clearance
Format: ADME, cell-based, Hepatocyte
readout_label: CLH (mL/h/10^6 cells)

compound="CCC(C)(NC(=O)c1cc(F)cc2cc(-c3ccc(Cl)cc3)oc12)C(=O)O (stereo unspecified)" readout_label=CLH measured_value=0.25
